Test system: UACC-62 melanoma
Experiment: NCI-60 one-dose screen, 48 h (100 = growth as untreated, 0 = no growth, -100 = all killed)
Conditions: 10 µM
Protocol: Growth inhibition of the UACC-62 human tumor cell line is measured as a screen for anti-cancer activity. Cells are grown in 96 well plates and exposed to the test compound for 48 hours. Compounds are tested at a single concentration, which is 10^-5 M for most compounds. The reported endpoint is percent growth (GI% or GIPRCNT), where numbers from 0 - 100% represent growth inhibition, and numbers from -100% - 0 represent cell death. For example, a value of 40 represents 60% growth inhibition. […]
The panel holds about 83,000 compounds, 20% with a hit somewhere; the sample as a whole holds those more often.
Rule: growth under 30% gives Not satisfied, otherwise Satisfied.

Inquiry: Is it the case that CSC1SCC2C(=O)N(C)C(C(C)C)C(=O)OCC(NC(=O)c3cnc4ccccc4n3)C(=O)NC(C)C(=O)N(C)C1C(=O)N(C)C(C(C)C)C(=O)OCC(NC(=O)c1cnc3ccccc3n1)C(=O)NC(C)C(=O)N2C (centres undefined) has growth reaching or exceeding 30%?
Reply text: Not satisfied

Inquiry: Determine whether measured growth meets or exceeds 30% for `N=S(c1ccccc1[N+](=O)[O-])c1ccccc1[N+](=O)[O-]`
Reply text: Satisfied

Inquiry: Given CO[C@H](C(=O)[C@@H](O)[C@@H](C)O)[C@@H]1Cc2cc3cc(OC4CC(OC5CC(O)C(O)C(C)O5)C(O)C(C)O4)c(C)c(O)c3c(O)c2C(=O)[C@H]1OC1CC(OC2CC(OC3CC(C)(O)C(O)C(C)O3)C(O)C(C)O2)C(O)C(C)O1 (some centres undefined) , state whether its growth is at least 30%.
Reply text: Not satisfied

Inquiry: State whether the measured growth reaches 30%, counting equality as reaching it, for `CCCCCCCCCCSC(=N)N`
Reply text: Not satisfied

Inquiry: Is growth at least 30%? Consider CS(=O)(=O)OC1CC(n2ccc(=O)[nH]c2=O)OC1COC(c1ccccc1)(c1ccccc1)c1ccccc1 (centres undefined)
Reply text: Satisfied

Inquiry: Form field: growth at least 30%? Entry: `O=C1NC(=O)c2cc([N+](=O)[O-])ccc21`
Reply text: Satisfied

Inquiry: API: above_or_equal(metric=growth, cutoff=30%) for item `Oc1ccc(N=Nc2ccccn2)c(O)c1`
Reply text: Not satisfied

Inquiry: Form field: growth at least 30%? Entry: `CC[N+](CC)=c1ccc2nc3c(cc(N)c4ccccc43)oc-2c1`
Reply text: Not satisfied

====

Test system: SK-MEL-2 melanoma
Experiment: NCI-60 one-dose screen, 48 h (100 = growth as untreated, 0 = no growth, -100 = all killed)
Conditions: 10 µM
This is part of a sample that, as a whole, favours compounds with a hit. Of some 83,000 tested, about 20% had one in any assay.
I'd appreciate it if you could supply growth values for the items below.
Numbers only; they are read as %.

Inquiry: Find the measured growth: item `Clc1cc(Cl)c(Cl)nn1` , target or system SK-MEL-2 melanoma.
Reply text: 99.9

Inquiry: Value wanted: growth (SK-MEL-2 melanoma) of entry `N=S(c1ccccc1[N+](=O)[O-])c1ccccc1[N+](=O)[O-]`
Reply text: 89.2

Inquiry: Request: growth, test system SK-MEL-2 melanoma, entry OC(CN1CCCC2CCCCC21)c1cc2ccccc2c2ccccc12 (stereo unspecified)
Reply text: 42.8

Inquiry: Please tell me: growth of COc1cccc2c1C(=O)c1c(O)c3c(c(O)c1C2=O)C[C@@](O)(C(=O)CO)C[C@@H]3OC1CC(N)C(O)C(C)O1 (stereo partly specified) , system SK-MEL-2 melanoma?
Reply text: -28.5

Inquiry: Hello, I am looking for reported growth with SK-MEL-2 melanoma for `CC(=O)Nc1cc(C)ccc1C` . Could you help?
Reply text: 101

Inquiry: Form field - read-out: growth; system: SK-MEL-2 melanoma; submitted item: `CCCCCCCCCCCC[N+](C)(C)Cc1ccccc1`
Reply text: -11.9

Inquiry: Short answer please: growth, SK-MEL-2 melanoma, entry COC(=O)C1C(O)C(C)C(O)C(C)C=C(C)C2=C3C(=C(C)C(=O)c4c(O)c(c(C)c(OC(C)=O)c43)NC(=O)C(C)=C/C=C\C(C)C(O)C(C)C1O)OCO2 (stereo unspecified)
Reply text: 26.5

Inquiry: Lookup: growth / SK-MEL-2 melanoma / `O=[N+]([O-])C1=C(c2ccccc2)SC=C(c2ccccc2)S1`
Reply text: 88.3

Inquiry: Identify the measured growth of CCCCCCCCCCCCCCCCCCOCC(COP(=O)([O-])OCC[N+](C)(C)C)OC (stereo unspecified) for SK-MEL-2 melanoma.
Reply text: 101

Inquiry: Quick check: growth on SK-MEL-2 melanoma, item `O=C(/C=C/c1cccnc1)c1ccccc1` ?
Reply text: 94.2

Inquiry: Which measured growth belongs to `CC1=CC(C)=Nc2ccc(Cl)cc2N1` , tested on SK-MEL-2 melanoma?
Reply text: 109
